assay: Sulforhodamine B assay of olaparib-induced cytotoxicity, KO + K109R cells; type: cell-based; conditions: human, GRB2-KO HeLa cells reconstituted with K109R mutant GRB2
quantity: IC50

stdin: Fill blank: measured IC50 of the compound O=C(c1cc(Cc2n[nH]c(=O)c3ccccc23)ccc1F)N1CCN(C(=O)C2CC2)CC1 [olaparib] is ____.
stdout: 20 µM
